- ASSAYED_SYSTEM: T1, cynomolgus CCR8 (cynomolgus monkey)
- T1 construct: whole, on cells; the constructs of the cell lines are not tied to it word for word; also called cynoCCR8
- ASSAY_NOTES: flow cytometry on 293T-cynoCCR8 cells
# key: entry, value: EC50
Kindly answer with a numeric value in µg/mL, unit omitted.

-- ask Please report EC50 for the following binder: 589D7C7 (antibody, V domains shown, Murine hybridoma antibody; also called 589D7C7 hybridoma antibody) VH: EVQLVESGGGLVQPKGSLKLSCAASGFNFNAYAMNWVRQAPGKGLEWVARIRSKSNNFATYYADSVKDRFTISRDDSESMVYLEMNNLKTEDTAMYYCVRHGRRDLLYSMDFWGQGTSVTVSS VL: DIVMTQAAFSNPVTLGTSASISCRSSKSLLHSNGITYLFWYLQKPGQSPQLLIYQMSNLASGVPDRFSGSGSGTDFTLRISRVEAEDVAVYYCAQSLELPLTFGGGTKLEIK
-- reply 0.298

-- ask Please report EC50 for the following binder: 569D11B5 (antibody, V domains shown, Murine hybridoma antibody; also called 569D11B5 hybridoma antibody) VH: EVQLIESGGGLVQPKGSLKLSCAASGFNFNAYAMNWVRQAPGKGLEWVARIRSKSNDFATYYADSVKGRFTISRDDSENMLFLQMNNLKTEDTAMYYCVRHGRRDLLYSMDFWGQGTSVTVSS VL: DIVMTQAAFSNPVTLGTSASISCRSSKSLLHSNGITYLFWYLQKPGQSPQLLIYQMSNLASGVPDRFSGSGSGTDFTLRISRVEAEDVGVYYCAQSLELPLTFGGGTKLEIK
-- reply 0.444

-- ask Please report EC50 for the following binder: 563E10E12 (antibody, V domains shown, Murine hybridoma antibody; also called 563E10E12 hybridoma antibody) VH: EVQLIESGGGLVQPKGSLKLSCAASGFNFNAYAMNWVRQAPGKGLEWVARIRSKSNNFATYYADSVTDRFTISRDDSESMLYLQMNNLKTEDTAMYYCVRHGRRDLLYSMDFWGQGTSVTVSS VL: DVVMTQAAFSNPVTLGTSTSISCRSSKSLLHSNGITYLFWYLQKPGQSPQLLIYQMSNLASGVPDRFSGSGSGTDFTLRISRVEAEDVGVYYCAQSLELPLTFGGGTKLEIK
-- reply 0.591

-- ask Please report EC50 for the following binder: 27B9-1G3 (antibody, V domains shown, Murine hybridoma antibody (supernatant or Protein A purified); also called 27B9-1G3 hybridoma antibody) VH: EIQLQQSGPELEKPGASVKISCKASGYSFTGYNMNWVKKSNGKSLEWIGNIDPYYGGTNYNQKFKGKATLTVDKSSSTAYMQLKSLTSEDSAVYYCARETWFITTGVIKKGFYFDYWGQGTTLTVSS VL: EIVLTQSPTTMAASPGEKITLACSASSIISSNYLHWYQQKPGFSPKLLIYRTSSLASGVPARFSGSGSGTSYSLTIGTMEAEDVATYYCQQGSSIPRTFGGGTKLEIK
-- reply 0.146

-- ask Please report EC50 for the following binder: 559E1B10 (antibody, V domains shown, Murine hybridoma antibody; also called 559E1B10 hybridoma antibody) VH: KVQLQQSGPVLVKPGASVKMSCKASGYTFTDYYVNWMKQNYGKSPEWIGVINPHNGDTRYNQKFKGKATLTVDKSSSTANMELTSLTSGDSAVYYCASWLRRGYYFDSWGQGTTLTVSS VL: DIVMTQSPATLSVTPGDRVSLSCRASQSISDYLHWYQQKSHESPRLLLKYVSQSISGIPSRFSGSGSGSDFTLTINSVEPEDVGVYYCQNGHSFPLTFGAGTKLELK
-- reply 0.322

Recorded values, source patent EP4624492A1.
